Test system: RXF 393 renal
Run Description: NCI tumour cell line growth inhibition, 48 h; in the data active means GI50 below about 0.43 µM; inactive means the rest
Outcome codes: active, inactive

>  <Compound>
CCCCCCOc1ccc(C(=N)N(CCCC)CCCC)c2ccccc12

>  <Category Label>
inactive

$$$$
>  <Compound>
O=C(CCN1CCCC1)Nc1ccc2c(Nc3ccccc3)c3ccccc3nc2c1

>  <Category Label>
inactive

$$$$
>  <Compound>
CN(C)CCCC1(c2ccc(F)cc2)OCc2cc(-c3cncc4ccccc34)ccc21 (centres undefined)

>  <Category Label>
inactive

$$$$
>  <Compound>
CN(C)C/C=C/C(=O)Nc1ccc(C(=O)N2CCC[C@@H](Nc3ncc(Cl)c(-c4c[nH]c5ccccc45)n3)C2)cc1

>  <Category Label>
active

$$$$
>  <Compound>
CCN(CC)CCOc1ccc(/C=C2\CC3C4CC=C5C[C@@H](OC(C)=O)CC[C@]5(C)C4CC[C@]3(C)C2=O)cc1OC (some centres undefined)

>  <Category Label>
inactive

$$$$
>  <Compound>
CCc1cccc(CC)c1/C=C/c1cncc(C(=O)NC)c1

>  <Category Label>
inactive

$$$$
>  <Compound>
COc1ccc2cc(-c3c(-c4ccncc4)nc(-c4ccc(S(C)=O)cc4C)n3C)ccc2c1 (centres undefined)

>  <Category Label>
inactive

$$$$
>  <Compound>
Nc1ncnc2c1c(-c1ccc(Oc3ccccc3)cc1)nn2C[C@@H]1SSC[C@@H]1O

>  <Category Label>
inactive

$$$$
>  <Compound>
Fc1c[c-]c(-c2ccccn2)c(F)c1.[CH3-].[Pt+2].c1ccc(P(C[PH+](c2ccccc2)c2ccccc2)c2ccccc2)cc1

>  <Category Label>
inactive

$$$$
